Molecular target: MC4 receptor (Homo sapiens, UniProt P32245)
Sequence (P32245 whole entry): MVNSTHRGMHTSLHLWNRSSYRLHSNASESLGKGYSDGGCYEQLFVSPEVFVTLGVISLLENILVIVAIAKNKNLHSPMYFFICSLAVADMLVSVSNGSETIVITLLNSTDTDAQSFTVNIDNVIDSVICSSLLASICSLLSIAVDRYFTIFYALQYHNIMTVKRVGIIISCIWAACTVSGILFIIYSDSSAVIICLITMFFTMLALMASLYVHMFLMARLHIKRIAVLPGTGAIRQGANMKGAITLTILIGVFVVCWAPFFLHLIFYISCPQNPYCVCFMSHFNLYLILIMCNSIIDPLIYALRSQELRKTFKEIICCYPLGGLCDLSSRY
Experiment: MC4 functional agonist potency (EC50), assay protocol E of US2005/0176772 / WO 2005/077935
Conditions: functional potency at the MC4 receptor
OBSERVATION TYPE: EC50 (nM)
# output: bare number, implied unit nM

{"COMPOUND": "CC1CN(C(=O)C2CN(c3ccc(=O)n(C)n3)CC2c2ccc(Cl)cn2)CC(C)C1(O)c1ccc(F)c(F)c1 (stereo not drawn) [Example 19]", "TARGET": "MC4 receptor (Homo sapiens, UniProt P32245)", "DATA VALUE": 6.5}

Report EC50 under test system MC4 receptor (Homo sapiens, UniProt P32245) for COc1ccc(C2(O)C(C)CN(C(=O)C3CN(c4ccc(=O)n(C)n4)CC3c3ccc(Cl)cn3)CC2C)cc1 (stereo not drawn) [Example 20] .
16.4

Report EC50 under test system MC4 receptor (Homo sapiens, UniProt P32245) for COc1ccc([C@@H]2CN(c3cncc(F)c3)C[C@H]2C(=O)N2C[C@@H](C)[C@](O)(c3ccc(F)cc3)[C@@H](C)C2)cn1 [Example 13] .
37.6

====

Entries and their pEC50
Molecular target: human MC3 receptor (Homo sapiens, UniProt P41968)
Construct: stably transfected with full length cDNA encoding human MC1 or MC3 receptors; expressed in transfected cells; host or cells: Chinese hamster ovary cell line (MC3; 'respectively')
Sequence (P41968 whole entry): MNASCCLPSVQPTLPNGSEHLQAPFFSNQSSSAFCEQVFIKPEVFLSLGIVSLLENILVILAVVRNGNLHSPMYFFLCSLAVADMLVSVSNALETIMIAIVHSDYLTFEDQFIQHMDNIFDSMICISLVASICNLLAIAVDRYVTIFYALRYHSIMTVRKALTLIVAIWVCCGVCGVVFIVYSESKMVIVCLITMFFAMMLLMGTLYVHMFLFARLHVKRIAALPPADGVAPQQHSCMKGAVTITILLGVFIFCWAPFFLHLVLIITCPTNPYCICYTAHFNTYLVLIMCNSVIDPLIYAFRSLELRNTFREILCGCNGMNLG
Experiment: In vitro agonist potency (EC50) against melanocortin receptor type 3, cAMP in recombinant cell line
Type: cell-based
Conditions: cell line stably transfected with human MC3, 1 hour at 37° C.
In textbook form, pEC50 equals minus log to base ten of the concentration in mol/L.

Completed entries (count: 3):
{"COMPOUND": "C[C@@H]1CN(C(=O)[C@@H]2CN(c3ccc(C#N)nn3)C[C@H]2c2ccc(Cl)cn2)C[C@H](C)[C@@]1(O)c1ccc(F)cc1 [Example 2]", "pEC50": 8.37}
{"COMPOUND": "CC1CN(C(=O)C2CN(c3ccc(C#N)cn3)CC2c2ccc(C#N)cn2)CC(C)C1(O)c1ccc(F)cc1 (stereo not shown) [Example 45]", "pEC50": 7.18}
{"COMPOUND": "C[C@@H]1CN(C(=O)[C@@H]2CN(c3ccc(=O)n(C)n3)C[C@H]2c2ccc(Cl)cn2)C[C@H](C)[C@@]1(O)c1ccccn1 [Example 22]", "pEC50": 5.98}

Next up:
In one line, give reported pEC50 of the entry CC1CN(C(=O)C2CN(c3ccc(=O)[nH]n3)CC2c2ccc(Cl)cn2)CC(C)C1(O)c1ccccc1 (stereo not shown) [Example 27] .
6.41

====

Entries and their Ki
Target: MC4 receptor (MC4R) (Homo sapiens, UniProt P32245)
Construct: expressed in transfected cells; host or cells: CHO-CRE MC4R cells (membranes)
Assay: AGRP inhibition: competition binding vs [125I]AGRP(87-132) at CHO-CRE MC4R cell membranes
Conditions: vs 0.3 nM [125I]AGRP(87-132)
# output: bare number, implied unit nM

Completed entries (count: 5):
{"COMPOUND": "CC1CN(C(=O)C2CN(c3ccc(C#N)cn3)CC2c2ccc(C#N)cn2)CC(C)C1(O)c1ccc(F)cc1 (stereo not shown) [Example 45]", "Ki [nM]": 251}
{"COMPOUND": "COc1ccc([C@@H]2CN(c3ccc(Cl)nn3)C[C@H]2C(=O)N2C[C@@H](C)[C@](O)(c3ccc(F)cc3)[C@@H](C)C2)nc1 [Example 44]", "Ki [nM]": 2130}
{"COMPOUND": "C[C@@H]1CN(C(=O)[C@@H]2CN(c3ccc(C#N)cn3)C[C@H]2c2ccc(Cl)cn2)C[C@H](C)[C@@]1(O)c1ccc(F)cc1 [Example 1]", "Ki [nM]": 39}
{"COMPOUND": "CC1CN(C(=O)C2CN(c3ccc(C#N)nn3)CC2c2ccc(F)cn2)CC(C)C1(O)c1ccccc1 (stereo not shown) [Example 33]", "Ki [nM]": 220}
{"COMPOUND": "COc1ccc(C2CN(c3ccc(C#N)nn3)CC2C(=O)N2CC(C)C(O)(c3ccc(F)cc3)C(C)C2)cn1 (stereo not shown) [Example 16]", "Ki [nM]": 251}

In one line, give reported Ki of the entry CC1CN(C(=O)C2CN(c3ccc(=O)n(C)n3)CC2c2ccc(Cl)cn2)CC(C)C1(O)c1ccc(F)c(F)c1 (stereo not shown) [Example 19] .
79

In one line, give reported Ki of the entry CC1CN(C(=O)C2CN(c3ccc(=O)[nH]n3)CC2c2ccc(F)cn2)CC(C)C1(O)c1ccccc1 (stereo not shown) [Example 37] .
422

====

Test: In vitro metabolism rate determination, rat liver microsome (RLM) assay
Format: in vitro ADME
Details: rat liver microsomes, substrate 1 μM; read-out: RLM (intrinsic clearance)
Procedure: In vitro Metabolism Rate Determination (Human Liver Microsome (HLM); Rat Liver Microsome (RLM) Assay) Many drugs are metabolised by the cytochrome P450 mono-oxygenase system. […] [formula] […] The volume of substrate required in the remaining 1.162.5 ml incubation is calculated as follows: [formula] • N.B. The volume of organic solvent added should not exceed 0.1% of the total incubation volume. […] The microsomal 4-nitroanisole O-demethylase activity is calculated as follows: Calculation of Results […]
OBSERVATION TYPE: microsomal CLint at 1 μM

{"COMPOUND": "CC1CN(C(=O)C2CN(c3cncc(F)c3)CC2c2ccc(Cl)cn2)CC(C)C1(O)C1CC1 (centres unmarked)", "OBSERVATION TYPE": "microsomal CLint at 1 μM", "DATA VALUE": "> 510 µL/min/mg"}
{"COMPOUND": "CC1CN(C(=O)C2CN(c3ccc(=O)n(C)n3)CC2c2ccc(Cl)cn2)CC(C)C1(O)c1ccc(Cl)cc1 (centres unmarked)", "OBSERVATION TYPE": "microsomal CLint at 1 μM", "DATA VALUE": "< 8.5 µL/min/mg"}
{"COMPOUND": "C[C@@H]1CN(C(=O)[C@@H]2CN(c3cncc(F)c3)C[C@H]2c2ccc(Cl)cn2)C[C@H](C)[C@@]1(O)c1ccccn1", "OBSERVATION TYPE": "microsomal CLint at 1 μM", "DATA VALUE": "> 510 µL/min/mg"}
{"COMPOUND": "C[C@@H]1CN(C(=O)[C@@H]2CN(c3ccc(C#N)nn3)C[C@H]2c2ccc(F)cn2)C[C@H](C)[C@@]1(O)c1ccc(F)cc1", "OBSERVATION TYPE": "microsomal CLint at 1 μM", "DATA VALUE": "< 8.5 µL/min/mg"}
{"COMPOUND": "C[C@@H]1CN(C(=O)[C@@H]2CN(c3ccc(=O)n(C)n3)C[C@H]2c2ccc(Cl)cn2)C[C@H](C)[C@@]1(O)C1CCCCC1", "OBSERVATION TYPE": "microsomal CLint at 1 μM", "DATA VALUE": "> 510 µL/min/mg"}
{"COMPOUND": "C[C@@H]1CN(C(=O)[C@@H]2CN(c3ccc(Cl)nn3)C[C@H]2c2ccc(Cl)cn2)C[C@H](C)[C@@]1(O)c1ccc(F)cc1", "OBSERVATION TYPE": "microsomal CLint at 1 μM", "DATA VALUE": "< 19.8 µL/min/mg"}
{"COMPOUND": "C[C@@H]1CN(C(=O)[C@@H]2CN(c3ccc(C#N)nn3)C[C@H]2c2ccc(F)cn2)C[C@H](C)[C@@]1(O)c1ccc(Cl)cc1", "OBSERVATION TYPE": "microsomal CLint at 1 μM", "DATA VALUE": "< 8.5 µL/min/mg"}
{"COMPOUND": "C[C@@H]1CN(C(=O)[C@@H]2CN(c3ccc(C#N)cn3)C[C@H]2c2ccc(Cl)cn2)C[C@H](C)[C@@]1(O)c1ccc(F)cc1", "OBSERVATION TYPE": "microsomal CLint at 1 μM", "DATA VALUE": "< 8.5 µL/min/mg"}

In one line, give reported microsomal CLint at 1 μM of the entry COc1ccc(N2CC(C(=O)N3CC(C)C(O)(C4CC4)C(C)C3)C(c3ccc(Cl)cn3)C2)nn1 (centres unmarked) .
> 510 µL/min/mg

In one line, give reported microsomal CLint at 1 μM of the entry CC1CN(C(=O)C2CN(c3ccc(=O)n(C)n3)CC2c2ccc(F)cn2)CC(C)C1(O)c1ccc(F)cc1 (centres unmarked) .
< 8.5 µL/min/mg

In one line, give reported microsomal CLint at 1 μM of the entry C[C@@H]1CN(C(=O)[C@@H]2CN(c3ccc(C#N)nn3)C[C@H]2c2ccc(C#N)cn2)C[C@H](C)[C@@]1(O)c1ccc(F)cc1 .
< 8.5 µL/min/mg

====

Entries and their EC50
Target: MC4 receptor (Homo sapiens, UniProt P32245)
Test: MC4 functional agonist potency (EC50), assay protocol E of US2005/0176772 / WO 2005/077935
Details: functional potency at the MC4 receptor

Completed entries (count: 6):
{"COMPOUND": "CC1CN(C(=O)C2CN(c3ccc(=O)n(C)n3)CC2c2ccc(Cl)cn2)CC(C)C1(O)c1ccc(Cl)cc1 (stereo not drawn) [Example 23]", "DATA VALUE": "4.75 nM"}
{"COMPOUND": "C[C@@H]1CN(C(=O)[C@@H]2CN(c3ccc(=O)n(C)n3)C[C@H]2c2ccc(Cl)cn2)C[C@H](C)[C@@]1(O)c1ccccn1 [Example 22]", "DATA VALUE": "19.8 nM"}
{"COMPOUND": "C[C@@H]1CN(C(=O)[C@@H]2CN(c3ccc(=O)[nH]n3)C[C@H]2c2ccc(F)cn2)C[C@H](C)[C@@]1(O)c1ccc(Cl)cc1 [Example 6]", "DATA VALUE": "18.9 nM"}
{"COMPOUND": "COc1ccc([C@@H]2CN(c3ccc(Cl)nn3)C[C@H]2C(=O)N2C[C@@H](C)[C@](O)(c3ccc(F)cc3)[C@@H](C)C2)nc1 [Example 44]", "DATA VALUE": "284 nM"}
{"COMPOUND": "C[C@@H]1CN(C(=O)[C@@H]2CN(c3ccc(Cl)nn3)C[C@H]2c2ccc(Cl)cn2)C[C@H](C)[C@@]1(O)c1ccc(F)cc1 [Example 3]", "DATA VALUE": "11.9 nM"}
{"COMPOUND": "C[C@@H]1CN(C(=O)[C@@H]2CN(c3ccc(C#N)nn3)C[C@H]2c2ccc(Cl)cn2)C[C@H](C)[C@@]1(O)c1ccc(F)cc1 [Example 2]", "DATA VALUE": "4.53 nM"}

Report EC50 under test system MC4 receptor (Homo sapiens, UniProt P32245) for COc1ccc(C2CN(c3cccnn3)CC2C(=O)N2CC(C)C(O)(c3ccccc3)C(C)C2)cn1 (stereo not drawn) [Example 12] .
91.6 nM

Report EC50 under test system MC4 receptor (Homo sapiens, UniProt P32245) for C[C@@H]1CN(C(=O)[C@@H]2CN(c3ccc(=O)n(C)n3)C[C@H]2c2ccc(Cl)cn2)C[C@H](C)[C@@]1(O)C1CC1 [Example 18] .
55.5 nM

Report EC50 under test system MC4 receptor (Homo sapiens, UniProt P32245) for COc1ccc(C2CN(c3ccc(C#N)nn3)CC2C(=O)N2CC(C)C(O)(c3ccc(F)cc3)C(C)C2)cn1 (stereo not drawn) [Example 16] .
34.3 nM

Report EC50 under test system MC4 receptor (Homo sapiens, UniProt P32245) for CC1CN(C(=O)C2CN(c3ccc(C#N)cn3)CC2c2ccc(C#N)cn2)CC(C)C1(O)c1ccc(F)cc1 (stereo not drawn) [Example 45] .
44.4 nM

Report EC50 under test system MC4 receptor (Homo sapiens, UniProt P32245) for CC1CN(C(=O)C2CN(c3ccc(=O)[nH]n3)CC2c2ccc(Cl)cn2)CC(C)C1(O)c1ccccc1 (stereo not drawn) [Example 27] .
4.54 nM

Report EC50 under test system MC4 receptor (Homo sapiens, UniProt P32245) for CC1CN(C(=O)C2CN(c3cncc(F)c3)CC2c2ccc(Cl)cn2)CC(C)C1(O)c1ccc(F)cc1 (stereo not drawn) [Example 25] .
12.4 nM

Report EC50 under test system MC4 receptor (Homo sapiens, UniProt P32245) for C[C@@H]1CN(C(=O)[C@@H]2CN(c3ccc(C#N)cn3)C[C@H]2c2ccc(Cl)cn2)C[C@H](C)[C@@]1(O)c1ccc(F)cc1 [Example 1] .
< 0.52 nM

Report EC50 under test system MC4 receptor (Homo sapiens, UniProt P32245) for COc1ccc([C@@H]2CN(c3ccc(C#N)nn3)C[C@H]2C(=O)N2C[C@@H](C)[C@](O)(c3ccc(F)cc3)[C@@H](C)C2)nc1 [Example 43] .
49.3 nM

Report EC50 under test system MC4 receptor (Homo sapiens, UniProt P32245) for C[C@@H]1CN(C(=O)[C@@H]2CN(c3ccc(C#N)nn3)C[C@H]2c2ccc(Cl)cn2)C[C@H](C)[C@@]1(O)c1ccccc1 [Example 29] .
7.54 nM

Report EC50 under test system MC4 receptor (Homo sapiens, UniProt P32245) for CC1CN(C(=O)C2CN(c3ccc(=O)n(C)n3)CC2c2ccc(Cl)cn2)CC(C)C1(O)c1ccccc1 (stereo not drawn) [Example 21] .
2.81 nM

Report EC50 under test system MC4 receptor (Homo sapiens, UniProt P32245) for C[C@@H]1CN(C(=O)[C@@H]2CN(c3ccc(Cl)nn3)C[C@H]2c2ccc(F)cn2)C[C@H](C)[C@@]1(O)c1ccc(Cl)cc1 [Example 5] .
137 nM

Report EC50 under test system MC4 receptor (Homo sapiens, UniProt P32245) for C[C@@H]1CN(C(=O)[C@@H]2CN(c3cccnn3)C[C@H]2c2ccc(Cl)cn2)C[C@H](C)[C@@]1(O)c1ccccn1 [Example 9] .
39.3 nM

Report EC50 under test system MC4 receptor (Homo sapiens, UniProt P32245) for COc1ccc([C@@H]2CN(c3ccc(=O)[nH]n3)C[C@H]2C(=O)N2C[C@@H](C)[C@](O)(c3ccc(Cl)cn3)[C@@H](C)C2)nc1 [Example 41] .
655 nM

Report EC50 under test system MC4 receptor (Homo sapiens, UniProt P32245) for C[C@@H]1CN(C(=O)[C@@H]2CN(c3ccc(C#N)nn3)C[C@H]2c2ccc(F)cn2)C[C@H](C)[C@@]1(O)c1ccc(F)cc1 [Example 34] .
39.2 nM

Report EC50 under test system MC4 receptor (Homo sapiens, UniProt P32245) for COc1ccc(C2CN(c3cncc(C#N)c3)CC2C(=O)N2CC(C)C(O)(c3ccc(F)cc3)C(C)C2)cn1 (stereo not drawn) [Example 15] .
53.9 nM
